B1: Azoarcus group I ribozyme (parent)
chain: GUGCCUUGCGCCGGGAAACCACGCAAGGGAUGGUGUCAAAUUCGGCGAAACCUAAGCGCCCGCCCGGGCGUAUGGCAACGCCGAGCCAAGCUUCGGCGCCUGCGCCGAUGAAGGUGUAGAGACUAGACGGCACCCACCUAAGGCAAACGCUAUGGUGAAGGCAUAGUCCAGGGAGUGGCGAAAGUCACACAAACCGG

Variants of: B1
assay: reverse-splicing fitness (ratio to wild type); higher = more active; in vitro selection; Mg2+ level not given
assay.readout: reverse-splicing fitness
Please reply with the value in numeric form only.

Reference set (3 entries):
| mutation.label | reverse-splicing fitness |
| --- | --- |
| A120U A145U C150G C169G U176G | 0.00208 |
| C82U A111G A120C C150G U176G | 0.00249 |
| C82G A111G A120U A145U C150U C169U U176A | 0.00291 |

Qu. What does the record list as reverse-splicing fitness for C82U A145C C169G ?
Ans. 0.00966

Qu. What does the record list as reverse-splicing fitness for C82A A111C A120G A145G C150A C169U ?
Ans. 0.00923
